// values below are reported IC50
target: UniProt:Q9Y5N1; assay: H3 GTPγS assay (SPA method), histamine H3 in vitro assay; type: biochemical; conditions: membranes of cells expressing human H3; GTPγ[35S] SPA; antagonist testing with reference agonist at EC80 (30 nM); in one embodiment HCl salts tested; read-out: Potency (functional potency as indicated by IC50)
Sequence (Q9Y5N1 whole entry): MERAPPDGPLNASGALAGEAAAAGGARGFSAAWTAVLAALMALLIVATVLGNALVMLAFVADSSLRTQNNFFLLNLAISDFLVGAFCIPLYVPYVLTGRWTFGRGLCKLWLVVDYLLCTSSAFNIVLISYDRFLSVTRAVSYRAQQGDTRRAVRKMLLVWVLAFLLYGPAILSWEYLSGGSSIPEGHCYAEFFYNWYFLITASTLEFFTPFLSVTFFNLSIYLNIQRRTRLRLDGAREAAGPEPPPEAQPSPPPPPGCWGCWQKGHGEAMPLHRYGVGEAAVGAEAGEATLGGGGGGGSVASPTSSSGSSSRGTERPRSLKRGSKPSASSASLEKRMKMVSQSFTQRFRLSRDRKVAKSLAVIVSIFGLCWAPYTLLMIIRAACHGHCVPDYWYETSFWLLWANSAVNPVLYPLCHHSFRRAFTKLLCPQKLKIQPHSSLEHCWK

Please review the entries below; each comes with its answer.
| compound | study system | IC50 |
| --- | --- | --- |
| CC(=O)Nc1ccc(-c2ccc3c(c2)nc2n3C3CCC2CN(C2CCC2)C3)cc1 (stereo not drawn) [Compound 27] | UniProt:Q9Y5N1 | < 100 nM |
| CC1Cn2c(nc3cc(Br)ccc32)CCN1C1CCC1 (stereo not drawn) [Compound 42] | UniProt:Q9Y5N1 | < 1000 nM |
| N#Cc1ccc(-c2ccc3c(c2)nc2n3CCN3CCCCC3C2)cc1 (single isomer, unassigned) [Compound 46] | UniProt:Q9Y5N1 | < 100 nM |
| N#Cc1ccc(-c2ccc3c(c2)nc2n3CCN3CCCCC3C2)cc1 (single isomer, unassigned) [Compound 47] | UniProt:Q9Y5N1 | < 10 nM |
| c1cc2c(cc1CN1CCOCC1)nc1n2CCN2CCCCC2C1 (stereo not drawn) [Compound 17] | UniProt:Q9Y5N1 | < 10 nM |

Now examine the next entry.
# input Which IC50 value is on record for c1cc2c(cc1CN1CCOCC1)nc1n2CC2CC1CN2C1CCC1 (stereo not drawn) [Compound 39] ?
# output > 1000 nM
